List of Percent Inhibition values.
- system name: ICAM-1 expressed on cells (JY cells; stimulated endothelial cells) (UniProt P05362 28-532, limits assumed)
- Sequence (P05362 28-532 limits assumed): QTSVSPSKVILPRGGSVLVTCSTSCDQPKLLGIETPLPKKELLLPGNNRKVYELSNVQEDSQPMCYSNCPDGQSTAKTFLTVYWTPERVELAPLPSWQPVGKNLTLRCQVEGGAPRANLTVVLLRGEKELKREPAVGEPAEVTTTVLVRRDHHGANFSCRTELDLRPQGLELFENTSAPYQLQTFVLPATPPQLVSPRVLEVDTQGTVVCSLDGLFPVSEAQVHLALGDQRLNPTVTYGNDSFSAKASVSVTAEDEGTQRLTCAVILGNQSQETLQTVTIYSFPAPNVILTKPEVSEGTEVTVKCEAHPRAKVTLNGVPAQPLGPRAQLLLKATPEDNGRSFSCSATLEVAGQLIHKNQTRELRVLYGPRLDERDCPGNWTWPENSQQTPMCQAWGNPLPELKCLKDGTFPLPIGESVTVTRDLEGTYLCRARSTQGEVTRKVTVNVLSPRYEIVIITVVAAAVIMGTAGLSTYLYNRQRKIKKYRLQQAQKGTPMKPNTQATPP
- experiment summary: cell-based or functional assay
Bridge positions count the residues as written; N and C are the ends. Ends that are not written are not given here.

binder: CLLKMRSAC (disulfide 1-9) [CLLKMRSAC (SEQ ID NO: 45), cyclic disulfide-linked peptide]
Percent Inhibition [percent]: 94
//
binder: CVLRMRSAC (disulfide 1-9) [CVLRMRSAC (SEQ ID NO: 42), cyclic disulfide-linked peptide]
Percent Inhibition [percent]: 56
//
binder: CLLRMRSVC (disulfide 1-9) [CLLRMRSVC (SEQ ID NO: 48), cyclic disulfide-linked peptide]
Percent Inhibition [percent]: 92
//
binder: CLVRMRSAC (disulfide 1-9) [CLVRMRSAC (SEQ ID NO: 41), cyclic disulfide-linked peptide]
Percent Inhibition [percent]: 0
//
binder: CLLRMRSIC (disulfide 1-9, Synthesized by Biopeptide; consensus derived from phage display on ICAM-1) [consensus peptide CLLRMRSIC (SEQ ID NO: 1), cyclized in the disulfide-linked form]
Percent Inhibition [percent]: 45
